Value source: patent US12187663B2

Biological target: TR-beta (Homo sapiens, UniProt P10828)
Construct: In this assay Nuclear Receptor-LBD is added to ligand test compounds
Sequence (P10828 217-461 limits assumed): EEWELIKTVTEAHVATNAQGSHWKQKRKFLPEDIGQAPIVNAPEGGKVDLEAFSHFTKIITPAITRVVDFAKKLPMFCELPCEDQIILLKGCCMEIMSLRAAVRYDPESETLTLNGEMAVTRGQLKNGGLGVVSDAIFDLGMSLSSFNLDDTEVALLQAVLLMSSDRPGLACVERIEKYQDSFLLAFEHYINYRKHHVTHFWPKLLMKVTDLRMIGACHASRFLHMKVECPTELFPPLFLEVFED
Experiment: LanthaScreen TR-FRET nuclear receptor coregulator assay, TR-beta
Conditions: coregulator peptide recruitment
Measured Quantity: pEC50
One number for each entry, as −log10 of the molar value.

Request the reported pEC50 associated with `Cc1cc(OCC(=O)O)cc(C)c1Cc1ccc(N)c(C(C)C)c1`
6.34
